Listing of entries alongside the reported IC50.
Target: Gli1 (Mus musculus, UniProt P47806)
Construct: expressed in transfected cells; host or cells: NIH-3T3
Sequence (P47806 whole entry): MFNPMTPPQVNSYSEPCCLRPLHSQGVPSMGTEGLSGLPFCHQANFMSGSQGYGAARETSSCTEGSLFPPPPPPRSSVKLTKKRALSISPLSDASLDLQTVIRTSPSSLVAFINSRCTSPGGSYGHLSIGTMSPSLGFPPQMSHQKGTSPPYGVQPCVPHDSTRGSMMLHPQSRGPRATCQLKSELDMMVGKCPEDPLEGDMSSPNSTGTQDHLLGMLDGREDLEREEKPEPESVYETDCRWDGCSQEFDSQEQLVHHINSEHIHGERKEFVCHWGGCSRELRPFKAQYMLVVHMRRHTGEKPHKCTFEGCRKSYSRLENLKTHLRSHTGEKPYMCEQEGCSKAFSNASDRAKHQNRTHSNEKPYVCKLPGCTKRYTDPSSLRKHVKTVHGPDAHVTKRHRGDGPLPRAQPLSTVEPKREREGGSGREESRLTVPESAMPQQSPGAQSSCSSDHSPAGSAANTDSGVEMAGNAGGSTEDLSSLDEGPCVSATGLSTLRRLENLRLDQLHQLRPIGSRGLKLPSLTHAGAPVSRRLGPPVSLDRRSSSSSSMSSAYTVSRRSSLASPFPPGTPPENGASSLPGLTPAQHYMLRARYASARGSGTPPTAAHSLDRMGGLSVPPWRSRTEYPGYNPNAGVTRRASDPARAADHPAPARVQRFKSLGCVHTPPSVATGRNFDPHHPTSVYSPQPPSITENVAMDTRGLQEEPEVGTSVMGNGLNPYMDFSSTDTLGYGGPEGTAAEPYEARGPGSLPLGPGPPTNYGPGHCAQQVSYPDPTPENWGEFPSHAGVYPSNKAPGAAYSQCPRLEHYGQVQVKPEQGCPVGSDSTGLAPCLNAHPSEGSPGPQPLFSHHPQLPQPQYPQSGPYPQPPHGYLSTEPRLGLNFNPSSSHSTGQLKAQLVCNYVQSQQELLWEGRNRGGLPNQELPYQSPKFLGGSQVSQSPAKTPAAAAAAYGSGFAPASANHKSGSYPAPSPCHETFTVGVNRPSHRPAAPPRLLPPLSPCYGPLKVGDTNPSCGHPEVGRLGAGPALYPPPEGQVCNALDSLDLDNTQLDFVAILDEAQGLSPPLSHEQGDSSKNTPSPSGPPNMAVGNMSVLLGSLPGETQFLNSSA
Test: Hh pathway activation mediated by overexpression of Gli1
Format: cell-based
Details: NIH-3T3 cells overexpressing Gli1; read-out: IC50 (uM) Gli1 Transfected or Infection

[
  {
    "compound": "O=C(Nc1cccc2ccccc12)OC[C@@H]1CCCN2CCCC[C@H]12",
    "systemTested": "Gli1 (Mus musculus, UniProt P47806)",
    "inequalityOperator": ">",
    "IC50 [µM]": 30
  },
  {
    "compound": "COc1ccc(OC)c2c1cc1n2CC(C)(C(=O)NC2CCCCCCC2)N(CCN(C)C)C1=O (stereo not drawn)",
    "systemTested": "Gli1 (Mus musculus, UniProt P47806)",
    "inequalityOperator": ">",
    "IC50 [µM]": 30
  },
  {
    "compound": "CCN1CCCC1CNC(=O)C1CCN(c2nc3c(C)cc(C)cc3s2)CC1 (stereo not drawn)",
    "systemTested": "Gli1 (Mus musculus, UniProt P47806)",
    "inequalityOperator": ">",
    "IC50 [µM]": 10
  },
  {
    "compound": "Cc1cc(/C=c2\\sc3nc4ccccc4n3c2=O)c(C)n1C(C)C",
    "systemTested": "Gli1 (Mus musculus, UniProt P47806)",
    "inequalityOperator": "=",
    "IC50 [µM]": 1
  },
  {
    "compound": "CCOC(=O)c1cc2c(=O)n3ccccc3nc2n(C(C)C)c1=NC(=O)c1cc(OC)cc(OC)c1",
    "systemTested": "Gli1 (Mus musculus, UniProt P47806)",
    "inequalityOperator": "=",
    "IC50 [µM]": 1.5
  },
  {
    "compound": "N#Cc1cc2c(nc1SCC(=O)Nc1nc3ccccc3s1)CCC2",
    "systemTested": "Gli1 (Mus musculus, UniProt P47806)",
    "inequalityOperator": "=",
    "IC50 [µM]": 1
  },
  {
    "compound": "CCCCNC(=N)C(C)c1ccc(CC(C)C)cc1 (stereo not drawn)",
    "systemTested": "Gli1 (Mus musculus, UniProt P47806)",
    "inequalityOperator": ">",
    "IC50 [µM]": 30
  },
  {
    "compound": "CCC(C)NS(=O)(=O)c1ccc(Cc2ccc(S(=O)(=O)NC(C)CC)cc2)cc1 (stereo not drawn)",
    "systemTested": "Gli1 (Mus musculus, UniProt P47806)",
    "inequalityOperator": "=",
    "IC50 [µM]": 7
  },
  {
    "compound": "CN1CCN(C2Cc3ccccc3Sc3ccccc32)CC1 (stereo not drawn)",
    "systemTested": "Gli1 (Mus musculus, UniProt P47806)",
    "inequalityOperator": ">",
    "IC50 [µM]": 30
  }
]

###

Tested on: Hh pathway
Assay: Su(fu)-/- fibroblasts assay for Hh pathway activation
Type: cell-based
Conditions: Gli-dependent firefly luciferase; 15 μM HPI-1, 20 μM HPI-2, 30 μM HPI-3, 30 μM HPI-4; 1440 min
Below, each of the molecules is paired with its reported % Inhibition Su(fu)-/- MEFs value.

[
  {
    "molecule": "N#CC(C(=O)c1ccc(Cl)cc1Cl)=C1NC(=O)c2ccccc2N1",
    "systemTested": "Hh pathway",
    "% Inhibition Su(fu)-/- MEFs, %": 58.5
  },
  {
    "molecule": "CCC(C)NS(=O)(=O)c1ccc(Cc2ccc(S(=O)(=O)NC(C)CC)cc2)cc1 (stereo not shown)",
    "systemTested": "Hh pathway",
    "% Inhibition Su(fu)-/- MEFs, %": 45.7
  },
  {
    "molecule": "CCCCNC(=N)C(C)c1ccc(CC(C)C)cc1 (stereo not shown)",
    "systemTested": "Hh pathway",
    "% Inhibition Su(fu)-/- MEFs, %": 6.26
  },
  {
    "molecule": "CCOc1ccc(CCNc2cnnc3c(Cl)cccc23)cc1OCC",
    "systemTested": "Hh pathway",
    "% Inhibition Su(fu)-/- MEFs, %": 62.1
  }
]
